# target.entity: human F508del-CFTR (Homo sapiens, UniProt P13569, DEL508-508)
# Sequence (P13569 with tags, fused parts or gaps DEL508-508): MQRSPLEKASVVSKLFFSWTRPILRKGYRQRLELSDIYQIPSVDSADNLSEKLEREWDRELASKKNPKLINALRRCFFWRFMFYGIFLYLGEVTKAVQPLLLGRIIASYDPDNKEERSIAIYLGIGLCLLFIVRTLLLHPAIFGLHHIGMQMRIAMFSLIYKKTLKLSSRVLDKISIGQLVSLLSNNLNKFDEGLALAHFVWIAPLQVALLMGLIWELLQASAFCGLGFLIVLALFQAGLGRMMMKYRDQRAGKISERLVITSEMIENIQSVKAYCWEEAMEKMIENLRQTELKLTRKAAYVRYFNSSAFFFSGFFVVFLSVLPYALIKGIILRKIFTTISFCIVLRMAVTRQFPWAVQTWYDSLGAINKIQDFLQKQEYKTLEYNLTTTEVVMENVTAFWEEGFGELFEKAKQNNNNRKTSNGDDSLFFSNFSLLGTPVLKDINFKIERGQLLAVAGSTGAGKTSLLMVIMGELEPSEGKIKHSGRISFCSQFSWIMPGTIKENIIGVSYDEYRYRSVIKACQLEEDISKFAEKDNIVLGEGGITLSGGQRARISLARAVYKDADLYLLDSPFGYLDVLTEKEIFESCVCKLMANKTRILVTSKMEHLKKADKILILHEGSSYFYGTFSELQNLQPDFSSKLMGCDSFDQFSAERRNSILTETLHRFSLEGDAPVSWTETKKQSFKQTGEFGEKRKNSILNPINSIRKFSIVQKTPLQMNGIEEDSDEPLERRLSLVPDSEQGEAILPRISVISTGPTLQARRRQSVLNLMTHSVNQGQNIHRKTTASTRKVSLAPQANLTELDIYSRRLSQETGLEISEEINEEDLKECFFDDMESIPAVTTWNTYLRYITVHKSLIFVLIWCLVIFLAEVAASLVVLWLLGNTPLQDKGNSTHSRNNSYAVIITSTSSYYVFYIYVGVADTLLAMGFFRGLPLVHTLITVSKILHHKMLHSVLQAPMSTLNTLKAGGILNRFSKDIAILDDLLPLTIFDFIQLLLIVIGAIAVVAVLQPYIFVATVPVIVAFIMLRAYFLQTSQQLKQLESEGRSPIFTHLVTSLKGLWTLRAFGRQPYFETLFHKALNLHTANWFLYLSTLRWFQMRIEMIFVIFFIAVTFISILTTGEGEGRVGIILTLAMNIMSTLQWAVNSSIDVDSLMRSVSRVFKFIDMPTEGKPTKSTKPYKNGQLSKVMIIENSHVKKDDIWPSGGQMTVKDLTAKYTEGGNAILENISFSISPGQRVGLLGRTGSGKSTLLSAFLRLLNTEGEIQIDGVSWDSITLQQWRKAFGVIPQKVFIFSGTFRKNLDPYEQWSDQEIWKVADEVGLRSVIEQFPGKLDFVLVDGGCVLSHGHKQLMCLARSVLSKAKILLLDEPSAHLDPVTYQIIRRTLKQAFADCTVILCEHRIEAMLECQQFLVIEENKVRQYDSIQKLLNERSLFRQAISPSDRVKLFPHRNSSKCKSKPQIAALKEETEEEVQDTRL
# experiment.description: F508del-CFTR cell surface expression (corrector activity), DiscoveRx ß-galactosidase complementation chemiluminescence assay in recombinant U2OS cell line;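 further: U2OS cells co-expressing ProLink-tagged F508del-CFTR and a membrane-anchored enzyme acceptor, where more surface CFTR restores β-galactosidase activity measured by chemiluminescence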
# reported.conditions: U2OS, in relation to Emax of corrector lumacaftor (=100%); arithmetic mean values
So I've got a bunch of compounds here, and I need their Emax values.
Numbers only, in %.

Before answering, review these 2 worked examples.
[
  {
    "compound": "COc1cccc(CCNC(=O)[C@@H]2CC(=O)N(C)[C@@H](CC(C)C)C(=O)N3CCN(CCO)C[C@@H]3C(=O)N[C@H](Cc3ccccc3)COc3ccc4ccccc4c3C(=O)N2)c1 [Example 416]",
    "Emax [%]": 345
  },
  {
    "compound": "CC(C)C[C@H]1C(=O)N(C)C2(CC2)C(=O)N[C@H](Cc2ccccc2)COc2cnc3ccccc3c2C(=O)N[C@H](C(=O)NCCc2nc(Cc3ccccc3)no2)CC(=O)N1C [Example 763]",
    "Emax [%]": 181
  }
]

Look up Emax of COc1nccc2c1C(=O)N[C@H](C(=O)NCCc1cc(C)no1)CC(=O)N(C)[C@@H](CC(C)C)C(=O)N1Cc3ccccc3C[C@@H]1C(=O)N[C@H](Cc1ccccc1)CO2 [Example 678] and report it.
296
